Source: ChEMBL document CHEMBL3988442

Below: a set of entries, each annotated with reported Percent Effect.
# system-under-test: AMP-activated protein kinase, AMPK (Homo sapiens) (UniProt P54646+O43741+P54619+Q9UGJ0+Q9Y478+Q13131+Q9UGI9)
# experimental-details: AMP-dependent Kinase enzyme assay. An in vitro enzyme assay that detects ADP turnover that is directly proportional to AMPK activity. This uses naive AMPK that is activated during the assay with MK-8722
# Assay type: functional
# Design: scale not given: direction of the effect not stated beside the values
# condition-parameters: 30 µM
Answer in %, number only, no unit symbol.

Field: example entries. Status: answers known.
1) CNC(=O)c1cn2cc(-c3ccccc3Cl)n(CC=C(C)C)c(=O)c2n1 :: 3.23
2) CS(=O)(=O)c1ccccc1NC(=O)N[C@@H]1c2ccccc2C[C@@H]1O :: 6.87
3) CC(C)N(C)S(=O)(=O)c1ccc2c(c1)CCN(C(=O)c1ccccn1)C2 :: -446
4) Clc1ccc2c(c1)C=C(CNC1CCc3ncnn3C1)CO2 (stereo unspecified) :: 12.6
5) O=C1CN(C(=O)c2cc3ccc(Br)cc3[nH]2)CCN1 :: 91

--- query ---
Any idea what its Percent Effect is? The compound is Cc1cc(C)cc(-n2ncc3c2CCCC3N)c1 (stereo unspecified)
15.1

* * *

Listed here are compounds together with their documented Percent Effect.
# Organism: Homo sapiens
# experimental-details: To identify inhibition of the IFN signalling (Jak-Stat) pathway via expression of an eGFP reporter gene under the control of an IFN-stimulated response element (ISRE) containing MxA promoter.
# Assay type: functional
# Design: scale not given: direction of the effect not stated beside the values
# condition-parameters: 30 µM
Just the number please, in %, no unit attached.

Look over these answered cases.
1. Cc1ccoc1-c1nnc(CN2CCCC(Cn3cncn3)C2)o1 (centres undefined) :: 14.1
2. COc1cccc(CN2CCCC3(CCN(C(=O)[C@H]4CCCO4)C3)C2)c1 (some centres undefined) :: 0.637
3. O=C(CC1CC1)N1C[C@@H]2CCN(c3cnccn3)C[C@@H]2C1 :: 16.8
4. O=c1[nH][nH]cc1-c1ccnc(NCCN2CCCC2)n1 :: 13.2
5. CC[C@@H]1N(Cc2ccsc2)CCC[C@]12CCC(=O)N2CCOC :: -2.54
6. c1csc(-c2nc(CN3CCn4c(nnc4C4CC4)C3)co2)c1 :: 7.72
7. Cc1c(CN2CCCC(c3[nH]ncc3S(C)(=O)=O)C2)cnn1C (centres undefined) :: 11.7
8. Cc1ccc(-c2nc(CN3CCn4c(nnc4C4CC4)C3)co2)cc1 :: -8.93

Given Cc1cccc(CN2CCc3nnc(CO)n3CC2)n1 , state its recorded Percent Effect.
16.8

# query: Percent Effect of entry COc1cccc(-n2nnc(C(=O)N3CCN(C)CC3C)c2C)c1 (centres undefined)
27.9

// query Percent Effect value for entry COc1ccc(C(N)c2cccc(S(C)(=O)=O)c2)cc1 (centres undefined)
9.08

Field request: Percent Effect | item: COC(=O)c1cccn1C1CCN(CC(=O)NC2CCCCC2)CC1
2.4

Could you tell me which Percent Effect is on file for Cc1ccn(-c2cccc(C(=O)N3CCCC(n4ccnc4C)C3)c2)n1 (centres undefined) ?
26.1

* * *

# system-under-test: Tyrosyl-tRNA synthetase, putative (Trypanosoma cruzi (strain CL Brener))
# experimental-details: Trypanosoma cruzi tyrosyl tRNA synthetase (TcYRS) SOP
# Format: functional
# Parameters: scale not given: direction of the effect not stated beside the values
# condition-parameters: 30 µM
Recorded measurements of Percent Effect, one per entry
Just the number plus its unit, please.

Look over these answered cases.
1. COCC1CC2(CCN(Cc3cnn(C)c3)CC2)CN1C(C)C (stereo unspecified) :: 2.56%
2. Cc1cncc(C2CCCN(C(=O)c3c[nH]c(=O)[nH]c3=O)C2)n1 (stereo unspecified) :: 10%
3. COc1ccc(OC)c(Sc2ncccc2C(=O)N(C)CCC#N)c1 :: 10%
4. Cc1cc(C)n(CCC(=O)N2CCCC(n3cncn3)C2)n1 (stereo unspecified) :: 15.4%
5. CCc1nccn1-c1cncc(C2CCCN2Cc2ccc(F)cc2)n1 (stereo unspecified) :: 5%

Tell me the measured Percent Effect of CCc1sc(-c2nnc(CNCCn3cc(C)cn3)o2)cc1C , please.
7.06%

Which measured Percent Effect value corresponds to O=C(NCC1CCOC1)Nc1ccc(OCC(F)(F)F)nc1 (stereo unspecified) ?
8.43%

Please report the recorded Percent Effect for Cn1ccnc1CN1CCOCC(Cc2ccccn2)C1 (stereo unspecified) .
10%

GET /values?readout=Percent Effect&item= O=C(NCCc1coc(-c2ccc(F)cc2)n1)NC1CCC(O)CC1 (stereo unspecified)
15.4%

Reported Percent Effect, compound CCCn1[nH]cc/c1=N\C(=O)CN1CCc2cnc(CC)nc2C1 : ____
7.69%

Reported Percent Effect for CCCn1ncc2c(C(=O)Nc3n[nH]c(SC)n3)cc(C3CC3)nc21 : what is it?
17.5%
